Biological target: human ORL-1 receptor (opioid receptor like 1) (human, UniProt P41146 1-370)
Sequence (P41146 whole entry): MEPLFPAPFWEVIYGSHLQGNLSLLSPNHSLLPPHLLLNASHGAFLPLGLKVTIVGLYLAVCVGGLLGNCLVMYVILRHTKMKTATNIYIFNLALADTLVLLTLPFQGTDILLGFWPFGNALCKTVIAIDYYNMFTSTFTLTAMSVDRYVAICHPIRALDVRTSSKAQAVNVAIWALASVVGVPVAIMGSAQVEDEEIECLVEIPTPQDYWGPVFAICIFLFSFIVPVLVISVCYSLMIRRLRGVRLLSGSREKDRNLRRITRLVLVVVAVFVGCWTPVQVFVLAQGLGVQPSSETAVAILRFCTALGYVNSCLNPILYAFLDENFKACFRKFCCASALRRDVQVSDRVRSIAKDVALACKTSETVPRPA
Test: cell-based or functional assay
* marks the point of attachment. Propionyl = CCC(=O)*
OBSERVABLE: [^35S]GTPγS Binding EC50 (nM)
Please reply with the bare figure in nM and do not write the unit itself.

Q) Any idea what its [^35S]GTPγS Binding EC50 is? The binder is Propionyl-RYYRWR-NH2 (SMILES CCC(=O)N[C@@H](CCCNC(=N)N)C(=O)N[C@@H](Cc1ccc(O)cc1)C(=O)N[C@@H](Cc1ccc(O)cc1)C(=O)N[C@@H](CCCNC(=N)N)C(=O)N[C@@H](Cc1c[nH]c2ccccc12)C(=O)N[C@@H](CCCNC(=N)N)C(N)=O, see recheck) [IV-16-C Propionyl-RYYRWR-NH2]
A) 22.3
